FYI, the data here is from paper PMC9204419.

Molecular target: BIRC8 (Homo sapiens, UniProt Q96P09)
Sequence (Q96P09 1-236): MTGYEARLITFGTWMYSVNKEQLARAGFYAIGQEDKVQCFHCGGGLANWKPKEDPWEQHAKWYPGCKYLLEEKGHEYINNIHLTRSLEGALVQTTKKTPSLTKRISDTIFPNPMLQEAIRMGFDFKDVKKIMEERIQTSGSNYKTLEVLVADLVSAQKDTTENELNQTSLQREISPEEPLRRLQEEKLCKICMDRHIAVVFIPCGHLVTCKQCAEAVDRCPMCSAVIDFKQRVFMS
Assay: NanoBRET cellular target engagement, full-length BIRC8
Please respond with reported pEC50 for every item in the list.
Entry type: numeric. Quantity: pEC50, the -log10 of concentration in molar units.

Exercise: What does the data say about its pEC50? Entry: CC[C@H](NC(=O)[C@H](C)NC)C(=O)N1C[C@@H](O)C[C@H]1Cc1c(-c2[nH]c3cc(F)ccc3c2C[C@@H]2C[C@H](O)CN2C(=O)[C@H](CC)NC(=O)[C@H](C)NC)[nH]c2cc(F)ccc12
Solution: 5.66

Exercise: What does the data say about its pEC50? Entry: CN[C@@H](C)C(=O)N[C@H](C(=O)N1CCC[C@H]1C(=O)Nc1snnc1-c1ccccc1)C1CCCCC1
Solution: 6.87

Exercise: What does the data say about its pEC50? Entry: CN[C@@H](C)C(=O)N[C@H](C(=O)N1CCC[C@H]1C(=O)N[C@@H]1CCCc2ccccc21)C1CCCCC1
Solution: 7.03

Exercise: What does the data say about its pEC50? Entry: CN[C@@H](C)C(=O)N[C@H]1CN(C(=O)CC(C)C)CC[C@H]2CC[C@@H](C(=O)NC(c3ccccc3)c3ccccc3)N2C1=O
Solution: 7.16

Exercise: What does the data say about its pEC50? Entry: CN[C@@H](C)C(=O)N[C@H](C(=O)N1CCC[C@H]1C(=O)Nc1sc(-c2ncco2)nc1-c1ccccc1)C1CCCCC1
Solution: 6.66

Exercise: What does the data say about its pEC50? Entry: CN[C@@H](C)C(=O)N[C@H](C(=O)N1CCC[C@H]1c1nc(C(=O)c2ccc(F)cc2)cs1)C1CCCCC1
Solution: 6.70

Exercise: What does the data say about its pEC50? Entry: CN[C@@H](C)C(=O)N[C@H](C(=O)N1CCC[C@H]1C(=O)N[C@H]1c2ccccc2C[C@H]1OCC#CC#CCO[C@@H]1Cc2ccccc2[C@@H]1NC(=O)[C@@H]1CCCN1C(=O)[C@@H](NC(=O)[C@H](C)NC)C1CCCCC1)C1CCCCC1
Solution: 7.12
